- experimental-system: T1, human TIGIT over-expressed on cells (human, UniProt Q495A1 22-244)
- T1 construct: also called CHO-K1/human TIGIT cells; CHO cells expressing human TIGIT
- T1 sequence: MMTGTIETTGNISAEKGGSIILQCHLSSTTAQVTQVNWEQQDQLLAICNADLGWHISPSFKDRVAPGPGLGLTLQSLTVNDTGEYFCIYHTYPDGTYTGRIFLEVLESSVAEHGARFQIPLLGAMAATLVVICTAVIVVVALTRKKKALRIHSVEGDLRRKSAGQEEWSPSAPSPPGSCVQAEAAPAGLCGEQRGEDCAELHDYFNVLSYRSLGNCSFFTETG
- run-description: FACS, CHO-K1 cells over-expressing human TIGIT
Please go through the items and note down their log10 EC50.
Use the decimal logarithm of EC50 (pM).

Example binders with recorded log10 EC50:
# binder, log10 EC50
rows = [
    ("11D8E12A4 (antibody, V domains shown, Mouse monoclonal antibody; also called mouse anti-human TIGIT monoclonal antibody 11D8E12A4) VH: EVLLQQSGPELVKPGASVKIPCKASGYTFTDYNMDWVKQSHGKSLEWIGDINPNNGGTIYNQKFKGKATLTVDKSSSTAYMELRSLTSEDTAVYYCARRWLLLVYTMDYWGQGTSVTVSS VL: QIVLTQSPAIMSASPGEKVTISCSASSSVSYMYWYQQKPGSSPKPWIYRTSNLASGVPARFSGSGSGTSYSLTISSMEAEDAATYYCHQYHNYPPTFGGGTKLEIK", 4.21),
    ("8F2D8E7 (antibody, V domains shown, Mouse monoclonal antibody; also called mouse anti-human TIGIT monoclonal antibody 8F2D8E7) VH: QVQLQQSGAELVKPGASVKLSCKTSGYTFTSYWIQWIKQRPGQGLGWIGEIFPGTGTTYYNEKFKGKATLTIDTSSSTAYMQLSSLTSEDSAVYSCARSRDGKVVDYWGQGTSVTVSS VL: DVQMTQTTSSLSASLGDRVTISCRASQDISNFLNWYQQRPDGTVKLLIYYTSKLHSGVPSRFSGSGSGTDYSLTIRNLEKEDIATYFCQQGNTPPYTFGGGTKLEIK", 3.11),
    ("92E9D4B4 (antibody, V domains shown, Mouse monoclonal antibody; also called mouse anti-human TIGIT monoclonal antibody 92E9D4B4) VH: EVMLVESGGGLVKPGGSLKLSCAASGFTFSFYTMSWVRQTPEKRLEWVATISGGGGDTYYPDNVKGRFTISRDNAKNNLYLQMSSLRSEDTALYYCARSLPVDFWGQGTTLTVSS VL: QIVLTQSPAIMSASLGERVTMTCTASSSVSSTYLHWYQQKPGSSPKFWIYSTSNMASGVPARFSGSGSGTSYSLTISSMEAEDAATYYCHYYHRSPYTFGGGTKLEIK", 2.90),
    ("100C4E7D11 (antibody, V domains shown, Mouse monoclonal antibody; also called mouse anti-human TIGIT monoclonal antibody 100C4E7D11) VH: EVMLVESGGGLVKPGGSLKLSCAASGFTFSFYTMSWVRQTPEKRLEWVATISSGGGSTYYSDSVKGRFTISRDNAKNNLYLQMTSLRSEDTALYYCSRSLPVDYWGQGTTLTVSS VL: QIVLTQSPAIMSASLGERVTMTCTASSSVSSTYLHWYQQKPGSSPKLWIYSTSNLASGVPARFSGSGSGTSYSLTISSMEAEDAATYYCHLYHHSPYTFGGGTKLEIK", 2.91),
]

Kindly consider the entry below.
Consider the binder 83G6H11C12 (antibody, V domains shown, Mouse monoclonal antibody; also called mouse anti-human TIGIT monoclonal antibody 83G6H11C12) VH: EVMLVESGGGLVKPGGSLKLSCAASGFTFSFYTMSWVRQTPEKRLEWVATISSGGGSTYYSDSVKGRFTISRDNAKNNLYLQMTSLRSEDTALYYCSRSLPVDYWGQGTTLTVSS VL: QIVLTQSPAIMSASLGERVTMTCTASSSVSSSYLHWYQQKPGSSPKLWIYSTSNLASGVPARFSGSGSGTSYSLTISSMEAEDAATYYCHLYHHSPYTFGGGTKLEIK and give its measured log10 EC50.
2.83
